Target: T1, cynomolgus monkey IL-2Rβ/CD122 subunit (cynomolgus monkey, UniProt Q38J85 27-239, limits assumed)
T1 construct: also called Cyno IL-2R subunit
T1 sequence (looked up): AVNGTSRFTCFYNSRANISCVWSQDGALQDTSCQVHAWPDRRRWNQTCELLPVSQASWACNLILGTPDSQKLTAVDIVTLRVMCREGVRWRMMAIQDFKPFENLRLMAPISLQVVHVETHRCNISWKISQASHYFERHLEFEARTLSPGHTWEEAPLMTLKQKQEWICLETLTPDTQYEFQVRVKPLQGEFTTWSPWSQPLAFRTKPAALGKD
Test: ELISA, bivalent; EC50 cyno vs human subunit
We begin with a simple list: items and their reported Fold change.
Number in fold, nothing else.

115-MP02E01 VHH-hFc, monospecific bivalent (Fc fusion, IgG1 Fc LALA-PG; not shown: human IgG1 CH2 and CH3 domains (Fc)) EVQLVESGGGLVQIGGSLRLSCAASGRTFSSITMAYFRQVPGKEREWVAGINFSGTRTFYADSVKGRFLISRDDAKSTMYLQMNSLKPEDTAVYYCAASPRGFYGPGNALYDYWGQGTQVTVSS    1
16-MP02B08 VHH-hFc, monospecific bivalent (Fc fusion, IgG1 Fc LALA-PG; not shown: human IgG1 CH2 and CH3 domains (Fc)) EVQLVESGGGLVQAGGSLRLSCAASGRAIENYPVGWFRQAPGKEREFVAAITWISGSTLYADSVKGRFTISRDNAKNTVYLQMSSLKPEDTALYYCAAALKTITRGQNDYSYWGQGTQVTVSS    0.9
24-MP06E05 VHH-hFc, monospecific bivalent (Fc fusion, IgG1 Fc LALA-PG; not shown: human IgG1 CH2 and CH3 domains (Fc)) QVQLVESGGELVQGGASLRLSCAASGRTFSNANMAWFRQAPEKEREFVALITWSSGSTLYADSVKGRFTISRDNARKMVYLQMNSLKPEDTAVYYCAADGPPYSGTYYRYDTYDYWGQGTQVTVSS    1.4

Please look at the following binder next.
Lookup: Please list Fold change recorded for the binder 126-MP02A03 VHH-hFc, monospecific bivalent (Fc fusion, IgG1 Fc LALA-PG; not shown: human IgG1 CH2 and CH3 domains (Fc)) QVQLVESGGGLVQPGGSLRLSCAASGFTFSNYAMSWVRQAPGKGLEWVSSITGAGRGTYYAESVKGRFTISRDNDKNTLYLQMNSLKPEDTAVYYCAKYDSSTFYPPTPARGIADRGQGTRVTVSS
Found: 0.7
